Origin of measurements: patent US20190010227A1

measured.on: T1, ECD of rec. EGFR (human, UniProt P00533 25-645)
T1 construct: extracellular domain; also called human epidermal factor receptor (EGFR)
test.details: SPR (BIAcore), chip coated with ECD of rec. EGFR
kon listing for selected binders.
Please reply with the bare figure in M⁻¹ s⁻¹ and do not write the unit itself.

Example entries begin here.
Humanized LA22 (H2 + h2) (antibody, human IgG1, V domains shown, Human IgG1 / kappa constant regions; also called H2-LA22 / h2-LA22) VH: EVQLVESGGGLVQPGGSLRLSCESNEYEFPSHDMSWVRQAPGKGLEWVSAITSDGISTYYPDTMERRFTISRDNTKKTLYLQMNSLRAEDTAVYYCARHDWDEGFASWGQGTLVTVSS VL: DVVMTQSPLSLPVTLGQPASISCRSSQSLVHSNGNTYLHWYQQRPGQSPRLLIYKVSNRFSGVPDRFSGSGSGTDFTLKISRVEAEDVGIYFCSQSSHVPPAFGGGTKLEIK; 6400
Humanized LA22 (H4 + h2) (antibody, human IgG1, V domains shown, Human IgG1 / kappa constant regions; also called H4-LA22 / h2-LA22) VH: EVQLVESGGGLVQPGGSLRLSCASNEYEFPSHDMSWVRQTPGKRLEWVSAITSDGISTYYPDTMERRFTISRDNSKNTLYLQMSSLRAEDTAVYYCARHDWDEGFASWGQGTLVTVSS VL: DVVMTQSPLSLPVTLGQPASISCRSSQSLVHSNGNTYLHWYQQRPGQSPRLLIYKVSNRFSGVPDRFSGSGSGTDFTLKISRVEAEDVGIYFCSQSSHVPPAFGGGTKLEIK; 12200

Would you kindly look at the next entry?
For the binder shown here, Humanized LA22 (H1 + h2) (antibody, human IgG1, V domains shown, Human IgG1 / kappa constant regions; also called H1-LA22 / h2-LA22) VH: EVQLVESGGGLVQPGGSLRLSCESNEYEFPSHDMSWVRQAPGKGLEWVSAITSDGISTYYPDTMERRFTISRDNSKNTLYLQMNSLRAEDTAVYYCARHDWDEGFASWGQGTLVTVSS VL: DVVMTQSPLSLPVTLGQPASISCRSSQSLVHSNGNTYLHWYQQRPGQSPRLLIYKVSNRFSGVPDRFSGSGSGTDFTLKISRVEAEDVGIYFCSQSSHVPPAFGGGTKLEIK , give the reported kon.
10400
